The measured values listed here are drawn from patent US10400224B2.

# Lookup of reported Actividad relativa (%) keyed by entry
- Test system: modified esterase 499EST
- test details: Effect of metallic ions on the activity of the modified esterase 499EST
- Assay type: biochemical, Acidicaldus organivorans USBA-GBX-499
- experimental parameters: ion 10 mM; pNPC8, 55° C., pH 9.0; control without additives = 100%
Entry rule: numbers only, all in %.

[Ca+2].[Cl-].[Cl-] :: 7

Moving on to the next compound.
Report Actividad relativa (%), nothing else, for this compound: [Cl][Fe]([Cl])[Cl] 342

###

- Test system: modified esterase 499EST
- test details: Effect of metallic ions on the activity of the modified esterase 499EST
- Type: biochemical, Acidicaldus organivorans USBA-GBX-499
- experimental parameters: ion 10 mM; pNPC8, 55° C., pH 9.0; control without additives = 100%
# Lookup of reported Actividad relativa (%) keyed by entry
Entry rule: numbers only, all in %.

Please review the entries below; each comes with its answer.
[Cl][Mn][Cl] :: 127
[Cl-].[Cl-].[Zn+2] :: 21
[Cl-].[Cl-].[Mg+2] :: 3

Report Actividad relativa (%), nothing else, for this compound: [Cl][Cu][Cl] 0

Report Actividad relativa (%), nothing else, for this compound: [Cl-].[Cl-].[Co+2] 23
